Data provenance is the Human Domainome abundance scans (Beltran et al. 2025).

B1: Receptor-interacting serine/threonine-protein kinase 2, residues 438 to 518; numbered along this chain, O43353 (parent)
chain: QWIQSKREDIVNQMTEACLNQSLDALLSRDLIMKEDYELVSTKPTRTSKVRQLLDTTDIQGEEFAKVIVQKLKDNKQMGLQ

# Variants of: B1
# assayProcedure: abundance fitness (aPCA) (normalised: wild type 0, dead -1); higher = more abundant; growth selection in yeast, the domain comes from the species named
# assaySetup: Homo sapiens
Give abundance fitness for every item shown.

Exam item: Record request: abundance fitness value, item T45N
Marked response: -0.011

Exam item: Quick one: abundance fitness of I32C ?
Marked response: -0.679

Exam item: Please give the measured abundance fitness for this variant: K43H
Marked response: -0.109

Exam item: Find the recorded abundance fitness belonging to T57A and report it.
Marked response: 0.045

Exam item: Recorded abundance fitness of T47S , please.
Marked response: -0.061

Exam item: GET /values?readout=abundance fitness&item= Q52K
Marked response: -0.442

Exam item: Please give the measured abundance fitness for this variant: Y37I
Marked response: -0.401

Exam item: Which abundance fitness value is on record for K66V ?
Marked response: -0.702

Exam item: Fill blank: measured abundance fitness of the variant T42V is ____.
Marked response: -0.415

Exam item: Name the reported abundance fitness value associated with the variant K66I
Marked response: -0.757

Exam item: Give its abundance fitness value. Item: Q21I
Marked response: -0.788

Exam item: Find the recorded abundance fitness belonging to S41G and report it.
Marked response: -0.295

Exam item: // returns reported abundance fitness for input K71S
Marked response: 0.028

Exam item: Suppose we examine the variant N75Y ; what abundance fitness value has been reported?
Marked response: -0.285

Exam item: What abundance fitness value was documented for this variant, S28L ?
Marked response: -0.204

Exam item: Consider the variant L53R and give its measured abundance fitness.
Marked response: -0.643

Exam item: Which abundance fitness is reported for this variant? L23V
Marked response: -0.509

Exam item: # lookup: abundance fitness of K71Y
Marked response: -0.204

Exam item: Entry K43C : reported abundance fitness = ?
Marked response: -0.219

Exam item: Entry under review: S48D . Reported abundance fitness?
Marked response: 0.065

Exam item: Requested field: abundance fitness. Item: D74N
Marked response: -0.345

Exam item: Consider the variant T42R and give its measured abundance fitness.
Marked response: 0.066
